Entry source: patent US12428408B2

Target: alpha2A (h) (Homo sapiens)
Construct: host or cells: CHO cells
Sequence (P08913 1-465): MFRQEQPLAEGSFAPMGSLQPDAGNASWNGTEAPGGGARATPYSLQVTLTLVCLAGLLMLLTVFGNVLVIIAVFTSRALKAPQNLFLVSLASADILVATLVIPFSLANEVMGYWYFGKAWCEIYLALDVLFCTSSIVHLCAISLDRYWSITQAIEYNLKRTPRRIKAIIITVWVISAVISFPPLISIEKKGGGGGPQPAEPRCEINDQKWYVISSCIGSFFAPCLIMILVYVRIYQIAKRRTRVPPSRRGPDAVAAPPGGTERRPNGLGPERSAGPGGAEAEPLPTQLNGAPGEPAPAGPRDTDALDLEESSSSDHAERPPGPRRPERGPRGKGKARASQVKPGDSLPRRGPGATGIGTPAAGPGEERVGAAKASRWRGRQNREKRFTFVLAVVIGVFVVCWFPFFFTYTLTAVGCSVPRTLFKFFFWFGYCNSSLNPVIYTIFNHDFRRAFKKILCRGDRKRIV
Assay: Competition assay to measure binding affinity at alpha2A receptor
Details: test ligand 10 μM; [3H]RX 821002 1 nM
MEASUREMENT_LABEL: α-2A, percent of control-specific binding (%)
Express the result in % but write the number alone.

Some solved cases for reference:
{"columns": ["COMPOUND", "RECORDED_MEASUREMENT"],
 "data": [
  ["CCOc1c(OC)cc(CCN)cc1OC [escaline]", 45],
  ["COc1cc(CC(C)N)c(OC)cc1Br (stereo not shown) [DOB, reference compound]", 66],
  ["CNC(C)Cc1ccc2c(c1)OCO2 (stereo not shown) [MDMA, reference compound]", 27]
]}

Input: Given COc1cc(CCN)c(OC)cc1Br [2C-B, reference compound] , state its recorded α-2A, percent of control-specific binding.
Output: 88

* * *

target: D3 (h) (Homo sapiens); construct: host or cells: CHO cells; test: Competition assay to measure binding affinity at D3 receptor; conditions: test ligand 10 μM; [3H]methylspiperone […]
Sequence (P35462 whole entry): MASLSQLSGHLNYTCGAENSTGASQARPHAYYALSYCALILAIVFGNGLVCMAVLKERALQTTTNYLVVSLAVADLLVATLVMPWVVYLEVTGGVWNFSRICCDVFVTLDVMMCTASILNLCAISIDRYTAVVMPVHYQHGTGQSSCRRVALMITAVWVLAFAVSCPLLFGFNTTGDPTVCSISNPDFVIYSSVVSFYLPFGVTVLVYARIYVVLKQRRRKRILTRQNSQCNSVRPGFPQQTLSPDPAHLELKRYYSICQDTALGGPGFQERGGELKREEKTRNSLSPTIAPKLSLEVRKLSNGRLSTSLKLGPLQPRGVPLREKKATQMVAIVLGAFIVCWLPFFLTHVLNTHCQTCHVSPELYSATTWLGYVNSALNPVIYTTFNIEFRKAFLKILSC
D3, percent of control-specific binding strictly under 20% means 1; at 20% or over means 0.

Some solved entries appear below for comparison.
{"columns": ["COMPOUND", "DISCRETE_LABEL"],
 "data": [
  ["NCCc1c[nH]c2ccc(O)cc12 [serotonin, reference compound]", 0],
  ["COc1cc2c(cc1CNC(C)Cc1ccc3c(c1)OCCO3)OCO2 (centres unmarked) [A(X)]", 0],
  ["CNC(C)Cc1ccc2c(c1)OCO2 (centres unmarked) [MDMA, reference compound]", 1],
  ["CC(Cc1ccc2c(c1)OCO2)NC1CCC1 (centres unmarked) [A(I)]", 0],
  ["CC(Cc1ccc2c(c1)OCCO2)NCc1cc2c(cc1Br)OCCO2 (centres unmarked) [A(XI)]", 0],
  ["CCOc1c(OC)cc(CCN)cc1OC [escaline]", 1],
  ["c1cc2c(cc1CCN1CCOCC1)OCO2 [A(VII)]", 1],
  ["CC(Cc1ccc2c(c1)OCO2)N1CCC1 (centres unmarked) [A(II)]", 0]
]}

Input: State whether 20% exceeds D3, percent of control-specific binding recorded for Brc1cc2c(cc1CCN1CCCC1)OCO2 [A(XXV)] .
Output: 0

Input: State whether 20% exceeds D3, percent of control-specific binding recorded for O=C(Cc1cc2c(cc1Br)OCO2)NCCO [A(XIX)] .
Output: 1

Input: State whether 20% exceeds D3, percent of control-specific binding recorded for CC(Cc1ccc2c(c1)OCCO2)NCc1ccc2c(c1)OCCO2 (centres unmarked) [A(XIII)] .
Output: 0

* * *

Examples of compounds with documented HT7, percent of control-specific binding follow.
molecular target: 5-HT7 (h) (Homo sapiens, UniProt P34969); construct: host or cells: HEK-293 cells; test: Competition assay to measure binding affinity at 5-HT7 receptor; settings: test ligand 10 μM; [3H]LSD 4 nM
Sequence (P34969 whole entry): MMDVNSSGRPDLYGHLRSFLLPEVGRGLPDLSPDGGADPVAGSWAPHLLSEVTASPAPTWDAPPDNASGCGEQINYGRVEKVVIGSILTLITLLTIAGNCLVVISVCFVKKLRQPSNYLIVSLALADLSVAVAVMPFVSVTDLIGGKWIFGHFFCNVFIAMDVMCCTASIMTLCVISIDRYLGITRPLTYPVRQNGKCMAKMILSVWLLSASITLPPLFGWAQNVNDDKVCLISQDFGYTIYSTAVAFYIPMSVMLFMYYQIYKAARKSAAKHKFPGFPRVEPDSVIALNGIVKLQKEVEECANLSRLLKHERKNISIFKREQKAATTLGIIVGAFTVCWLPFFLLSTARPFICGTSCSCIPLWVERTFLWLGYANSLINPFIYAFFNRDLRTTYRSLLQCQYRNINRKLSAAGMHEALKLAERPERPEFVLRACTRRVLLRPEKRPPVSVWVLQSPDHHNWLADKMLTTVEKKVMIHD
Express the result in % but write the number alone.

Some solved cases for reference:
{"columns": ["COMPOUND", "TEST_SYSTEM", "HT7, percent of control-specific binding, %"],
 "data": [
  ["COc1cc2c(cc1CNC(C)Cc1ccc3c(c1)OCO3)OCO2 (centres unmarked) [A(V)]", "5-HT7 (h) (Homo sapiens, UniProt P34969)", 68],
  ["CC(Cc1ccc2c(c1)OCCO2)NC1CCC1 (centres unmarked) [A(XVII)]", "5-HT7 (h) (Homo sapiens, UniProt P34969)", 24],
  ["FC1(F)Oc2ccc(CCN3CCCC3)cc2O1 [A(XXVIII)]", "5-HT7 (h) (Homo sapiens, UniProt P34969)", 15]
]}

Input: API: value(readout=HT7, percent of control-specific binding, system=5-HT7 (h) (Homo sapiens, UniProt P34969)) for record O=C(Cc1c(Br)ccc2c1OCO2)N1CCCC1 [A(XXVI)]
Output: 0

Input: API: value(readout=HT7, percent of control-specific binding, system=5-HT7 (h) (Homo sapiens, UniProt P34969)) for record c1cc(CCN2CCCC2)c2c(c1)OCO2 [A(XXIX)]
Output: 48

Input: API: value(readout=HT7, percent of control-specific binding, system=5-HT7 (h) (Homo sapiens, UniProt P34969)) for record N#CC(Cc1ccc2c(c1)OCO2)NC1CCC1 (centres unmarked) [A(XX)]
Output: 26

Input: API: value(readout=HT7, percent of control-specific binding, system=5-HT7 (h) (Homo sapiens, UniProt P34969)) for record CC(Cc1ccc2c(c1)OCO2)N1CC(NC(=O)OC(C)(C)C)C1 (centres unmarked) [A(IV)]
Output: 79

Input: API: value(readout=HT7, percent of control-specific binding, system=5-HT7 (h) (Homo sapiens, UniProt P34969)) for record COc1cc(CCN)c(OC)cc1Br [2C-B, reference compound]
Output: 88

Input: API: value(readout=HT7, percent of control-specific binding, system=5-HT7 (h) (Homo sapiens, UniProt P34969)) for record COc1cc(CC(C)N)c(OC)cc1Br (centres unmarked) [DOB, reference compound]
Output: 65

Input: API: value(readout=HT7, percent of control-specific binding, system=5-HT7 (h) (Homo sapiens, UniProt P34969)) for record O=C(Cc1ccc2c(c1)OC(F)(F)O2)N1CCCC1 [A(XXVII)]
Output: 0

Input: API: value(readout=HT7, percent of control-specific binding, system=5-HT7 (h) (Homo sapiens, UniProt P34969)) for record Brc1cc2c(cc1CCN1CCCC1)OCO2 [A(XXV)]
Output: 71

* * *

Examples of compounds with documented NET, percent of control-specific binding follow.
biological target: NET (h) (Homo sapiens, UniProt P23975); construct: host or cells: CHO cells; experiment: Competition assay to measure binding affinity at norepinephrine transporter (NET); settings: test ligand 10 μM; [3H]nisoxetine 1 nM
Sequence (P23975 whole entry): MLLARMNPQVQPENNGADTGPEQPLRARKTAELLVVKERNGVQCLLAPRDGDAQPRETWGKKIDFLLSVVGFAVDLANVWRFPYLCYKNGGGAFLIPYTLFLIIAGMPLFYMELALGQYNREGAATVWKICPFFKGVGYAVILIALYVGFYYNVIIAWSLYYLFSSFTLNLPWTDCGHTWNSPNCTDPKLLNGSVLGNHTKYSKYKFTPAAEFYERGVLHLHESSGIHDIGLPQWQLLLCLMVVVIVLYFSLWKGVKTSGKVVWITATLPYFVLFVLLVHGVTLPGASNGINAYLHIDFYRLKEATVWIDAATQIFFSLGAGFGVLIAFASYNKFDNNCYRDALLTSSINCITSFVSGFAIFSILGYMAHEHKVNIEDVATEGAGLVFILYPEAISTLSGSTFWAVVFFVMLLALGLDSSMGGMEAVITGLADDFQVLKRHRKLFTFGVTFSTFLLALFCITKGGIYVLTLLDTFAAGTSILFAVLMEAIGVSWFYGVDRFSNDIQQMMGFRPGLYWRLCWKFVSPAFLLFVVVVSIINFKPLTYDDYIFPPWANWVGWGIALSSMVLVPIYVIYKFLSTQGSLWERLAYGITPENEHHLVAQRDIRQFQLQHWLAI
Express the result in % but write the number alone.

Input: Given Brc1cc2c(cc1CCN1CCCC1)OCO2 , state its recorded NET, percent of control-specific binding.
Output: 28

Input: Given CCOc1c(OC)cc(CCN)cc1OC , state its recorded NET, percent of control-specific binding.
Output: 6

Input: Given OCCNCCc1cc2c(cc1Br)OCO2 , state its recorded NET, percent of control-specific binding.
Output: 6

Input: Given CC(Cc1ccc2c(c1)OCO2)N1CCC1 (centres unmarked) , state its recorded NET, percent of control-specific binding.
Output: 77

Input: Given COc1cc(CCN)cc(OC)c1OC , state its recorded NET, percent of control-specific binding.
Output: −9

Input: Given COc1ccc2cccc(CCNC(C)=O)c2c1 [Agomelatine, reference compound] , state its recorded NET, percent of control-specific binding.
Output: 1

Input: Given N#CC(Cc1ccc2c(c1)OCO2)NC1CCC1 (centres unmarked) , state its recorded NET, percent of control-specific binding.
Output: 1

Input: Given COc1cc2c(cc1CCNCCO)OCO2 , state its recorded NET, percent of control-specific binding.
Output: 0

Input: Given COc1cc(CC(C)N)c(OC)cc1Br (centres unmarked) [DOB, reference compound] , state its recorded NET, percent of control-specific binding.
Output: 6

Input: Given CC(Cc1ccc2c(c1)OCCO2)NC1CCC1 (centres unmarked) , state its recorded NET, percent of control-specific binding.
Output: 18

Input: Given CC(Cc1ccc2c(c1)OCO2)NN(C)C (centres unmarked) , state its recorded NET, percent of control-specific binding.
Output: 2

* * *

target: human serotonin transporter (SERT) (Homo sapiens); construct: purchased PerkinElmer RBHSTM400UA; experiment: biochemical; format: binding
Sequence (P31645 whole entry): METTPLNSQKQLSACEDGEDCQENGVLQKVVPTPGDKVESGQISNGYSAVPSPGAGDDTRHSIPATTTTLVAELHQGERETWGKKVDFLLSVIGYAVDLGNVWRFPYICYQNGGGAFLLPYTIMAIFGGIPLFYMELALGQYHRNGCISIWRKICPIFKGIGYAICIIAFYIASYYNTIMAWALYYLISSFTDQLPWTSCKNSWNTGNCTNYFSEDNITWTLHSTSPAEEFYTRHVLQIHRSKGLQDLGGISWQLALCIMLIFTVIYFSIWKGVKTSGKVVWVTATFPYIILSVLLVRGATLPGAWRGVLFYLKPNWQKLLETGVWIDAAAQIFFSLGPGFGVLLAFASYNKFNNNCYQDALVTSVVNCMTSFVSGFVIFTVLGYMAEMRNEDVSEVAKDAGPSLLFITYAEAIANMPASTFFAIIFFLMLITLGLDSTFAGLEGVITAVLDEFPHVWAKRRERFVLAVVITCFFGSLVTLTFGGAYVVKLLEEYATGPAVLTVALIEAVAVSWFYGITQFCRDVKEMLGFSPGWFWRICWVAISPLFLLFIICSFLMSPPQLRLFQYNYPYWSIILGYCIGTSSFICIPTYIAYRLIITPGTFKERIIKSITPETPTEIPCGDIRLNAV
pKi: −log10 of the molar value.
Respond with Yes for pKi values of 6 and above, No for values below.

Some solved entries appear below for comparison.
{"columns": ["MOLECULE", "DISCRETE_LABEL"],
 "data": [
  ["CC(Cc1ccc2c(c1)OCCO2)N1CC(NC(=O)OC(C)(C)C)C1 (stereo not shown) [A(XVI)]", "No"],
  ["CC(Cc1ccc2c(c1)OCCO2)NCc1ccc2c(c1)OCO2 (stereo not shown) [A(XII)]", "No"],
  ["CC(Cc1ccc2c(c1)OCCO2)NCc1cc2c(cc1Br)OCCO2 (stereo not shown) [A(XI)]", "Yes"],
  ["COc1cc2c(cc1CCNCCO)OCO2 [A(XXIV)]", "No"],
  ["c1cc2c(cc1CCN1CCOCC1)OCO2 [A(VII)]", "No"]
]}

Input: Say whether c1cc(CCN2CCCC2)c2c(c1)OCO2 [A(XXIX)] shows pKi of 6 or more.
Output: No

Input: Say whether CC(Cc1ccc2c(c1)OCCO2)NCc1ccccc1 (stereo not shown) [A(XXIII)] shows pKi of 6 or more.
Output: No

Input: Say whether CC(Cc1ccc2c(c1)OCO2)N1CCC1 (stereo not shown) [A(II)] shows pKi of 6 or more.
Output: No

Input: Say whether Cc1ccc(Sc2ccccc2N2CCNCC2)c(C)c1 [vortioxetine, reference compound] shows pKi of 6 or more.
Output: Yes

Input: Say whether O=C(Cc1ccc2c(c1)OC(F)(F)O2)N1CCCC1 [A(XXVII)] shows pKi of 6 or more.
Output: No
